System: HeLa Kyoto
assay.comment: solubility change mitosis vs G1/S (difference of NP-40 vs SDS log2 ratios) (log2 ratio difference); higher = more soluble in mitosis
# binning rule on solubility change mitosis (log2): low end (below -0.01), middle (-0.01 to below 0.2), high end (0.2 or more)

biosequence="MQAGKPILYSYFRSSCSWRVRIALALKGIDYKTVPINLIKDRGQQFSKDFQALNPMKQVPTLKIDGITIHQSLAIIEYLEEMRPTPRLLPQDPKKRASVRMISDLIAGGIQPLQNLSVLKQVGEEMQLTWAQNAITCGFNALEQILQSTAGIYCVGDEVTMADLCLVPQVANAERFKVDLTPYPTISSINKRLLVLEAFQVSHPCRQPDTPTELRA [GSTZ1]" category=middle
biosequence="MASRGATRPNGPNTGNKICQFKLVLLGESAVGKSSLVLRFVKGQFHEFQESTIGAAFLTQTVCLDDTTVKFEIWDTAGQERYHSLAPMYYRGAQAAIVVYDITNEESFARAKNWVKELQRQASPNIVIALSGNKADLANKRAVDFQEAQSYADDNSLLFMETSAKTSMNVNEIFMAIAKKLPKNEPQNPGANSARGRGVDLTEPTQPTRNQCCSN [RAB5A]" category=middle
biosequence="MPQKDPCQKQACEIQKCLQANSYMESKCQAVIQELRKCCAQYPKGRSVVCSGFEKEEEENLTRKSASK [CMC4]" category="high end"
biosequence="MEADSPAGPGAPEPLAEGAAAEFSSLLRRIKGKLFTWNILKTIALGQMLSLCICGTAITSQYLAERYKVNTPMLQSFINYCLLFLIYTVMLAFRSGSDNLLVILKRKWWKYILLGLADVEANYVIVRAYQYTTLTSVQLLDCFGIPVLMALSWFILHARYRVIHFIAVAVCLLGVGTMVGADILAGREDNSGSDVLIGDILVLLGASLYAISNVCEEYIVKKLSRQEFLGMVGLFGTIISGIQLLIVEYKDIASIHWDWKIALLFVAFALCMFCLYSFMPLVIKVTSATSVNLGILTADLYSLFVGLFLFGYKFSGLYILSFTVIMVGFILYCSTPTRTAEPAESSVPPVTSIGIDNLGLKLEENLQETHSAVL [SLC35F2]" category="low end"
biosequence="MAMNYNAKDEVDGGPPCAPGGTAKTRRPDNTAFKQQRLPAWQPILTAGTVLPIFFIIGLIFIPIGIGIFVTSNNIREIEIDYTGTEPSSPCNKCLSPDVTPCFCTINFTLEKSFEGNVFMYYGLSNFYQNHRRYVKSRDDSQLNGDSSALLNPSKECEPYRRNEDKPIAPCGAIANSMFNDTLELFLIGNDSYPIPIALKKKGIAWWTDKNVKFRNPPGGDNLEERFKGTTKPVNWLKPVYMLDSDPDNNGFINEDFIVWMRTAALPTFRKLYRLIERKSDLHPTLPAGRYSLNVTYNYPVHYFDGRKRMILSTISWMGGKNPFLGIAYIAVGSISFLLGVVLLVINHKYRNSSNTADITI [TMEM30A]" category="low end"
biosequence="MVLESVARIVKVQLPAYLKRLPVPESITGFARLTVSEWLRLLPFLGVLALLGYLAVRPFLPKKKQQKDSLINLKIQKENPKVVNEINIEDLCLTKAAYCRCWRSKTFPACDGSHNKHNELTGDNVGPLILKKKEV [CISD2]" category=middle
biosequence="MLSVASRSGPFAPVLSATSRGVAGALRPLVQATVPATPEQPVLDLKRPFLSRESLSGQAVRRPLVASVGLNVPASVCYSHTDIKVPDFSEYRRLEVLDSTKSSRESSEARKGFSYLVTGVTTVGVAYAAKNAVTQFVSSMSASADVLALAKIEIKLSDIPEGKNMAFKWRGKPLFVRHRTQKEIEQEAAVELSQLRDPQHDLDRVKKPEWVILIGVCTHLGCVPIANAGDFGGYYCPCHGSHYDASGRIRLGPAPLNLEVPTYEFTSDDMVIVG [UQCRFS1]" category="low end"
biosequence="MSAALLRRGLELLAASEAPRDPPGQAKPRGAPVKRPRKTKAIQAQKLRNSAKGKVPKSALDEYRKRECRDHLRVNLKFLTRTRSTVAESVSQQILRQNRGRKACDRPVAKTKKKKAEGTVFTEEDFQKFQQEYFGS [RPS19BP1]" category="high end"

Ask: Band for the recorded solubility change mitosis (log2) of MGLLDLCEEVFGTADLYRVLGVRREASDGEVRRGYHKVSLQVHPDRVGEGDKEDATRRFQILGKVYSVLSDREQRAVYDEQGTVDEDSPVLTQDRDWEAYWRLLFKKISLEDIQAFEKTYKGSEEELADIKQAYLDFKGDMDQIMESVLCVQYTEEPRIRNIIQQAIDAGEVPSYNAFVKESKQKMNARKRRAQEEAKEAEMSRKELGLDEGVDSLKAAIQSRQKDRQKEMDNFLAQMEAKYCKSSKGGGKKSALKKEKK [DNAJC9] ?
Result: high end

Ask: Into which bin does this sequence go? MWVCSTLWRVRTPARQWRGLLPASGCHGPAASSYSASAEPARVRALVYGHHGDPAKVVELKNLELAAVRGSDVRVKMLAAPINPSDINMIQGNYGFLPELPAVGGNEGVAQVVAVGSNVTGLKPGDWVIPANAGLGTWRTEAVFSEEALIQVPSDIPLQSAATLGVNPCTAYRMLMDFEQLQPGDSVIQNASNSGVGQAVIQIAAALGLRTINVVRDRPDIQKLSDRLKSLGAEHVITEEELRRPEMKNFFKDMPQPRLALNCVGGKSSTELLRQLARGGTMVTYGGMAKQPVVASVSLLIFKDLKLRGFWLSQWKKDHSPDQFKELILTLCDLIRRGQLTAPACSQVPLQDYQSALEASMKPFISSKQILTM [MECR]
Result: low end

Ask: Tag the class for MPAPPCASCHAARAALRRPLSGQALCGACFCAAFEAEVLHTVLAGRLLPPGAVVAVGASGGKDSTVLAHVLRALAPRLGISLQLVAVDEGIGGYRDAALAAVRRQAARWELPLTVVAYEDLFGGWTMDAVARSTAGSGRSRSCCTFCGVLRRRALEEGARRVGATHIVTGHNADDMAETVLMNFLRGDAGRLARGGGLGSPGEGGALPRCRPLQFASQKEVVLYAHFRRLDYFSEECVYAPEAFRGHARDLLKRLEAARPSAVLDLVHSAERLALAPAARPPRPGACSRCGALASRALCQACALLDGLNRGRPRLAIGKGRRGLDEEATPGTPGDPARPPASKAVPTF [CTU1]
Result: middle

Ask: GET /class?item= MPKCPKCNKEVYFAERVTSLGKDWHRPCLKCEKCGKTLTSGGHAEHEGKPYCNHPCYAAMFGPKGFGRGGAESHTFK [CRIP1]
Result: high end

* * *

System: HeLa Kyoto
assay.comment: solubility change mitosis vs G1/S (difference of NP-40 vs SDS log2 ratios) (log2 ratio difference); higher = more soluble in mitosis
observable: solubility change mitosis (log2)
Answer using only a numeral; do not append any unit.

Ask: Give the value of solubility change mitosis (log2) reported for the following: MAAAAPNAGGSAPETAGSAEAPLQYSLLLQYLVGDKRQPRLLEPGSLGGIPSPAKSEEQKMIEKAMESCAFKAALACVGGFVLGGAFGVFTAGIDTNVGFDPKDPYRTPTAKEVLKDMGQRGMSYAKNFAIVGAMFSCTECLIESYRGTSDWKNSVISGCITGGAIGFRAGLKAGAIGCGGFAAFSAAIDYYLR [TIMM22]
Result: -0.0464

* * *

Readings of solubility in G1/S (log2) for the listed sequences
System: HeLa Kyoto
assay.comment: solubility in G1/S (NP-40 vs SDS abundance) (log2 ratio); higher = more soluble
test.conditions: cell cycle stage: G1/S
I'd appreciate a reply containing only the number, no unit.

A selection of reference data follows.
biosequence="MLSVASRSGPFAPVLSATSRGVAGALRPLVQATVPATPEQPVLDLKRPFLSRESLSGQAVRRPLVASVGLNVPASVCYSHTDIKVPDFSEYRRLEVLDSTKSSRESSEARKGFSYLVTGVTTVGVAYAAKNAVTQFVSSMSASADVLALAKIEIKLSDIPEGKNMAFKWRGKPLFVRHRTQKEIEQEAAVELSQLRDPQHDLDRVKKPEWVILIGVCTHLGCVPIANAGDFGGYYCPCHGSHYDASGRIRLGPAPLNLEVPTYEFTSDDMVIVG [UQCRFS1]" endpoint_result=0.119
biosequence="MSSPQAPEDGQGCGDRGDPPGDLRSVLVTTVLNLEPLDEDLFRGRHYWVPAKRLFGGQIVGQALVAAAKSVSEDVHVHSLHCYFVRAGDPKLPVLYQVERTRTGSSFSVRSVKAVQHGKPIFICQASFQQAQPSPMQHQFSMPTVPPPEELLDCETLIDQYLRDPNLQKRYPLALNRIAAQEVPIEIKPVNPSPLSQLQRMEPKQMFWVRARGYIGEGDMKMHCCVAAYISDYAFLGTALLPHQWQHKVHFMVSLDHSMWFHAPFRADHWMLYECESPWAGGSRGLVHGRLWRQDGVLAVTCAQEGVIRVKPQVSESKL [ACOT8]" endpoint_result=-0.0523

Note: attention shifts to another entry.
Ask: Identify solubility in G1/S (log2) associated with the sequence MPKHEFSVDMTCGGCAEAVSRVLNKLGGVKYDIDLPNKKVCIESEHSMDTLLATLKKTGKTVSYLGLE [ATOX1]
Result: -0.375
